Hello, the source for this data is ChEMBL document CHEMBL1145762, in case you need it.

Species: Homo sapiens
Assay: Antiplatelet aggregation (platelet activating factor-induced) activity at a concentration of 2 ng/mL
Format: functional, organism-based
quantity-kind: IC50 (µM)
I only need the number, in µM, no unit after it.

INSERT INTO results (molecule, unit_abbrev, measured) VALUES
  ('COc1ccc(C2=C3c4cc(OC)c(OC)cc4CCN3C(=O)C2=O)cc1', 'µM', 33.2);

# input for lookup
If you can, please state the reported IC50 value of `COc1cc2c(cc1OC)C1=C(c3ccc(Cl)cc3)C(=O)C(=O)N1CC2` .
84.8

###

Species on record: Homo sapiens
Experiment: Inhibitory activity against arachidonic acid-induced platelet aggregation at a concentration of 100 uM was determined
Assay type: functional, organism-based
Doc: threshold 50 µM (exclusive). Items with IC50 beneath it return TRUE; others return FALSE.

Before answering, review these 4 worked examples.
INSERT INTO measurements (compound, classification) VALUES
  ('COc1cc2c(cc1OC)C1=C(c3ccc(Cl)cc3)C(=O)C(=O)N1CC2', 'FALSE'),
  ('COc1cc2c(cc1OC)C1=C(c3ccccc3Br)C(=O)C(=O)N1CC2', 'FALSE'),
  ('CC(=O)Oc1ccccc1C(=O)O [ASPIRIN]', 'TRUE'),
  ('COc1cc2c(cc1OC)C1=C(c3ccccc3Cl)C(=O)C(=O)N1CC2', 'FALSE');

A record lists `COc1ccc(C2=C3c4cc(OC)c(OC)cc4CCN3C(=O)C2=O)cc1` . Is its IC50 below 50 µM?
TRUE

A record lists `COc1cc2c(cc1OC)C1=C(c3ccccc3OC)C(=O)C(=O)N1CC2` . Is its IC50 below 50 µM?
FALSE

A record lists `COc1cc2c(cc1OC)C1=C(c3ccc(Br)cc3)C(=O)C(=O)N1CC2` . Is its IC50 below 50 µM?
FALSE

A record lists `COc1cc2c(cc1OC)C1=C(c3cccc(Cl)c3)C(=O)C(=O)N1CC2` . Is its IC50 below 50 µM?
FALSE

A record lists `COc1cccc(C2=C3c4cc(OC)c(OC)cc4CCN3C(=O)C2=O)c1` . Is its IC50 below 50 µM?
TRUE

A record lists `COc1cc2c(cc1OC)C1=C(c3cccc(Br)c3)C(=O)C(=O)N1CC2` . Is its IC50 below 50 µM?
TRUE

###

Species: Homo sapiens
Experiment: Antiplatelet aggregation (platelet activating factor-induced) activity at a concentration of 2 ng/mL
Format: functional, organism-based
pIC50: −log10 of the molar value.
quantity-kind: pIC50

Example entries begin here.
INSERT INTO results (molecule, measured) VALUES
  ('COc1cc2c(cc1OC)C1=C(c3cccc(Cl)c3)C(=O)C(=O)N1CC2', '< 4.00'),
  ('CC(=O)Oc1ccccc1C(=O)O', '< 4.00');

# input for lookup
If you can, please state the reported pIC50 value of `COc1cc2c(cc1OC)C1=C(c3ccccc3Br)C(=O)C(=O)N1CC2` .
< 4.00
